- System: sodium channel in hTRPV1-N1E115 cells
- experiment-notes: FLIPR membrane potential assay of sodium channel response in hTRPV1-N1E115 cells, with (47° C.) or without (25° C.) heat activation of hTRPV1
- Assay type: cell-based
- condition: 0.1 mM; 47° C. (heat activation of hTRPV1)
measure-name: hTRPV1-N1E Nav 0.1 mM (% inhibition) 47° C.

The reported value for C[N+]1(C)CCCCC1CCN(c1ccc(F)cc1)C1Cc2ccccc2C1.[I-] (stereo not shown) [Example 15] in terms of hTRPV1-N1E Nav 0.1 mM (% inhibition) 47° C. is 75.2 (N = 3) %

The reported value for Cc1ccccc1N(CCC1CC[N+](C)(C)CC1)C1Cc2ccccc2C1.[I-] [Example 45] in terms of hTRPV1-N1E Nav 0.1 mM (% inhibition) 47° C. is 83.3 (N = 2) %

The reported value for Cc1ccc(N(CC2CCCC[N+]2(C)C)C2Cc3ccccc3C2)cc1.[I-] (stereo not shown) [Example 27] in terms of hTRPV1-N1E Nav 0.1 mM (% inhibition) 47° C. is 81.3 (N = 2) %

The reported value for CC[N+]1(CC)CCCCC1CN(c1ccc(C)cc1)C1Cc2ccccc2C1.[I-] (stereo not shown) [Example 30] in terms of hTRPV1-N1E Nav 0.1 mM (% inhibition) 47° C. is 97.2 (N = 2) %

The reported value for Cc1cccc(N(CC2CCCC[N+]2(C)C)C2Cc3ccccc3C2)c1.[I-] (stereo not shown) [Example 29] in terms of hTRPV1-N1E Nav 0.1 mM (% inhibition) 47° C. is 82.9 (N = 2) %

The reported value for C[N+]1(C)CCCCC1CN(c1ccccc1)C1Cc2ccccc2C1.[I-] (stereo not shown) [Example 3] in terms of hTRPV1-N1E Nav 0.1 mM (% inhibition) 47° C. is 67 (N = 2) %

The reported value for Cc1cccc(N(CCC2CCCC[N+]2(C)C)C2Cc3ccccc3C2)c1.[I-] (stereo not shown) [Example 19] in terms of hTRPV1-N1E Nav 0.1 mM (% inhibition) 47° C. is 87.9%

The reported value for C[N+]1(C)CCCCC1CCN(c1nccs1)C1Cc2ccccc2C1.[I-] (stereo not shown) [Example 39] in terms of hTRPV1-N1E Nav 0.1 mM (% inhibition) 47° C. is 11.3 (N = 2) %

The reported value for CC[N+]1(CC)CCCCC1CCN(c1ccccc1C)C1Cc2ccccc2C1.[I-] (stereo not shown) [Example 25] in terms of hTRPV1-N1E Nav 0.1 mM (% inhibition) 47° C. is 89.6 (N = 2) %

The reported value for Cc1cccc(N(CCC2CCCC[N+]2(C)C)C2Cc3ccccc3C2)n1.[I-] (stereo not shown) [Example 47] in terms of hTRPV1-N1E Nav 0.1 mM (% inhibition) 47° C. is 79.5 (N = 2) %
